Every entry's value here was drawn from paper PMC10353061.

Tested on: HCC1806 cells
Measurement description: Cell proliferation by live-cell imaging (IncuCyte), HCC1806 TNBC cells
Assay type: cell-based
Condition info: 40 μM, 72 h
Procedure: As TNBC is a highly heterogeneous subgroup, including breast cancers with different molecular and phenotypic traits,[37] effects of compounds 5–10 on cell proliferation were also tested in additional TNBC cell lines, i.e., HCC1806 and HCC1937. […] Effects on cell proliferation were evaluated as above for the MDA-MB-231 TNBC cells at the latest time point of observation of 72 h. […]
Reported endpoint: effect on HCC1806 cell growth

O=S(=O)(Nc1ccc(-c2ccco2)cc1)c1ccc(Br)cc1 [Compound 8] = mild inhibitory effect
O=S(=O)(Nc1cccc(-c2ccccn2)c1)c1ccc(Cl)cc1 [Compound 7] = mild inhibitory effect
O=S(=O)(Nc1cccc(-c2ccccn2)c1)c1ccc(Br)cc1 [Compound 6] = significant inhibition
O=S(=O)(Nc1cccc(-c2ccco2)c1)c1ccc(Br)cc1 [Compound 5] = significant inhibition

###

Kindly state melting point for each of the entries shown.

// melting point lookup, key: O=S(=O)(Nc1cccc(-c2ccccn2)c1)c1ccc(Cl)cc1
166 to 169 °C

// melting point lookup, key: O=S(=O)(Nc1ccc(-c2ccco2)cc1)c1ccc(Br)cc1
163 to 166 °C

// melting point lookup, key: O=S(=O)(Nc1cccc(-c2ccco2)c1)c1ccc(Br)cc1
147 to 150 °C

// melting point lookup, key: O=S(=O)(Nc1ccc(-c2ccccn2)cc1)c1ccc(Cl)cc1
180 to 182 °C

// melting point lookup, key: O=S(=O)(Nc1cccc(-c2ccccn2)c1)c1ccc(Br)cc1
175 to 177 °C

###

Tested on: HCC1937 cells
Measurement description: Cell proliferation by live-cell imaging (IncuCyte), HCC1937 TNBC cells
Type: cell-based
Condition info: 40 μM, 72 h
Reported endpoint: effect on HCC1937 cell growth

O=S(=O)(Nc1cccc(-c2ccccn2)c1)c1ccc(Br)cc1 [Compound 6] = significant inhibition
O=S(=O)(Nc1cccc(-c2ccco2)c1)c1ccc(Br)cc1 [Compound 5] = significant inhibition
